Catalogue of 3' UTR reporter interaction score values
# Test system: PHOX2B
# assay overview: 3' UTR reporter interaction score (median-centred robust z-score of log2 firefly/Renilla activity); higher = less repression of the 3' UTR reporter
# test context: HEK293T; 48 h
The reply should be a number, written without any unit.

sequence entry	assayed system	3' UTR reporter interaction score
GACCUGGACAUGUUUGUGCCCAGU	PHOX2B	0.605
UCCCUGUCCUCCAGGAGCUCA	PHOX2B	-1.29
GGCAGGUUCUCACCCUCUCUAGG	PHOX2B	-1.4
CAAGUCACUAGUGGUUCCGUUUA	PHOX2B	0.0612
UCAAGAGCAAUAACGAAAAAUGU	PHOX2B	-0.662

Query :: GET /values?readout=3' UTR reporter interaction score&item= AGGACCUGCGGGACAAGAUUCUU
Result :: 1.33

Query :: GET /values?readout=3' UTR reporter interaction score&item= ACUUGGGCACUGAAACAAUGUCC
Result :: 0.564

Query :: GET /values?readout=3' UTR reporter interaction score&item= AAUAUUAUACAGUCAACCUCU
Result :: 0.408

Query :: GET /values?readout=3' UTR reporter interaction score&item= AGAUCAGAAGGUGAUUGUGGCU
Result :: -0.105

Query :: GET /values?readout=3' UTR reporter interaction score&item= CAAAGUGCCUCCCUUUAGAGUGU
Result :: 0.0452

Query :: GET /values?readout=3' UTR reporter interaction score&item= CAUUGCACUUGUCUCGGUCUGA
Result :: -0.664

Value source: the supplement of paper PMC5844555
